Molecular target: NaV1.5 (Homo sapiens)
Construct: permanently transfected with an expression vector containing the full-length cDNA coding for the desired human sodium channel α-subunit; expressed in transfected cells; host or cells: HEK-293
Sequence (Q14524 whole entry): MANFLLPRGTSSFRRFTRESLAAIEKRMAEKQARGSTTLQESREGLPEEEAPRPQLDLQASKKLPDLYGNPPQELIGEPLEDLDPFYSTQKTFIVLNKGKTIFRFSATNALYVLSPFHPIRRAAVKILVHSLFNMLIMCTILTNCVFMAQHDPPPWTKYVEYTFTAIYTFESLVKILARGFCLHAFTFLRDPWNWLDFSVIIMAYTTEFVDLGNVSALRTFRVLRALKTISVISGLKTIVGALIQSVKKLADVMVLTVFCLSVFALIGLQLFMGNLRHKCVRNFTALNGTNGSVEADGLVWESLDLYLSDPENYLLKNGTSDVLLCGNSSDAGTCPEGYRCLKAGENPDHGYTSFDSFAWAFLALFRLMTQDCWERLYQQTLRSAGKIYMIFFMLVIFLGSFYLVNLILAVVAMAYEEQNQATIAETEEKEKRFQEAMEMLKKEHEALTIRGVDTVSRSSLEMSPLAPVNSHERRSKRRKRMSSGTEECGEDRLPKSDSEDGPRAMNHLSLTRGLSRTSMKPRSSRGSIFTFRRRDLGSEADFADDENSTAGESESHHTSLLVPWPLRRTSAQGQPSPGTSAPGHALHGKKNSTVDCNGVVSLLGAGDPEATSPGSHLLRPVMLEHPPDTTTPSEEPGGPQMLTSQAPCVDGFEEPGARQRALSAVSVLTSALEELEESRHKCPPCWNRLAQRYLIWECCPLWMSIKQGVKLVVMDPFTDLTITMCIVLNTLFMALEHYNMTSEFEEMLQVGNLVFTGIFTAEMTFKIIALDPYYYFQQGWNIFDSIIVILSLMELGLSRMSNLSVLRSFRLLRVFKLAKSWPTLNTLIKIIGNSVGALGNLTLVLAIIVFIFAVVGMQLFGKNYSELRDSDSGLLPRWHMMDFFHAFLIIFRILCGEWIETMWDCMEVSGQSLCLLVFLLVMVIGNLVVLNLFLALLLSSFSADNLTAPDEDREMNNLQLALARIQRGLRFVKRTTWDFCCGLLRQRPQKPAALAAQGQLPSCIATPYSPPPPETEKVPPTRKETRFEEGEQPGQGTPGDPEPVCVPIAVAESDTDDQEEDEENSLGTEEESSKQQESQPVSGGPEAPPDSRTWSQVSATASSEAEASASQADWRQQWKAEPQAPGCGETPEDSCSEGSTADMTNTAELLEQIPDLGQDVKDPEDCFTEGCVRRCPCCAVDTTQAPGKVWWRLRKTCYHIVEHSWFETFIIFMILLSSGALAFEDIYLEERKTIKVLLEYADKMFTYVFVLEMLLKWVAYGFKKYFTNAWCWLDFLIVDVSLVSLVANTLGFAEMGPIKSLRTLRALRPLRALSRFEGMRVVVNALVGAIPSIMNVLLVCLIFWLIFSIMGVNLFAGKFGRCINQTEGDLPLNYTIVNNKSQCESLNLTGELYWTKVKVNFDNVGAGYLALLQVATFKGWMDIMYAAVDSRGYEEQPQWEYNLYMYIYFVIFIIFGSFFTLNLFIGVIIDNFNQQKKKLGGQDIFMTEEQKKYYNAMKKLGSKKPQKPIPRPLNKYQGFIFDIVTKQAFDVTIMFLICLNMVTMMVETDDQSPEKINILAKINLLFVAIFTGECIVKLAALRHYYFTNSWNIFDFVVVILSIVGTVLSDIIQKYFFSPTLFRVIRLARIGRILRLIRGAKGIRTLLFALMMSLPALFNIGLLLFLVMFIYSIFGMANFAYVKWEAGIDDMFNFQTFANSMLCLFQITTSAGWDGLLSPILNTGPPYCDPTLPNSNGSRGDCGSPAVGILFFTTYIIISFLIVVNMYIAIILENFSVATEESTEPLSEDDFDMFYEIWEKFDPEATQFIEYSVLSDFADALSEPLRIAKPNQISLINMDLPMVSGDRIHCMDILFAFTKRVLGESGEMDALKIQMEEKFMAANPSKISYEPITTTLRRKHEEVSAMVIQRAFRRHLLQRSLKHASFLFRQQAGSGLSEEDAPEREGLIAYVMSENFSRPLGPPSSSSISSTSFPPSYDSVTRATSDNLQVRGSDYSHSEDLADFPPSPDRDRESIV
Assay: Patch voltage clamp electrophysiology assay (EP), NaV1.5
Assay type: cell-based
Conditions: HEK-293 cells stably expressing NaV1.5 with β1 subunit; whole-cell patch clamp, membrane potential −60 mV (inactivated state); read-out: Nav1.5
recorded_endpoint: IC50

Worked set:
[
  {
    "compound": "C[C@@H]1CC[C@@H](C(=O)O)N1C(=O)c1cc(C2CC2)c(OCC23CC4CC(CC(C4)C2)C3)cc1F [Example 152]",
    "IC50": "13 µM"
  },
  {
    "compound": "C[C@H](c1cc(Cl)cc(Cl)c1)N1CCC[C@H](COc2cc(F)c(C(=O)N3CCC[C@H]3C(=O)O)cc2C2CC2)C1 (single isomer, unassigned) [Example 73a]",
    "IC50": "12 µM"
  }
]

Moving on to the next compound.
[Q] Annotate the compound O=C(c1cc(C2CC2)c(OCC23CC4CC(CC(C4)C2)C3)cc1F)N1CCC2CC21C(=O)O (stereo not drawn) [Example 212] with its measured IC50.
[A] 17 µM

###

// IC50 lookup, one value per entry
Molecular target: human NaV1.7 (Homo sapiens, UniProt Q15858)
Construct: permanently transfected with an expression vector containing the full-length cDNA coding for the desired human sodium channel α-subunit
Sequence (Q15858 1-1977 isoform Q15858-3): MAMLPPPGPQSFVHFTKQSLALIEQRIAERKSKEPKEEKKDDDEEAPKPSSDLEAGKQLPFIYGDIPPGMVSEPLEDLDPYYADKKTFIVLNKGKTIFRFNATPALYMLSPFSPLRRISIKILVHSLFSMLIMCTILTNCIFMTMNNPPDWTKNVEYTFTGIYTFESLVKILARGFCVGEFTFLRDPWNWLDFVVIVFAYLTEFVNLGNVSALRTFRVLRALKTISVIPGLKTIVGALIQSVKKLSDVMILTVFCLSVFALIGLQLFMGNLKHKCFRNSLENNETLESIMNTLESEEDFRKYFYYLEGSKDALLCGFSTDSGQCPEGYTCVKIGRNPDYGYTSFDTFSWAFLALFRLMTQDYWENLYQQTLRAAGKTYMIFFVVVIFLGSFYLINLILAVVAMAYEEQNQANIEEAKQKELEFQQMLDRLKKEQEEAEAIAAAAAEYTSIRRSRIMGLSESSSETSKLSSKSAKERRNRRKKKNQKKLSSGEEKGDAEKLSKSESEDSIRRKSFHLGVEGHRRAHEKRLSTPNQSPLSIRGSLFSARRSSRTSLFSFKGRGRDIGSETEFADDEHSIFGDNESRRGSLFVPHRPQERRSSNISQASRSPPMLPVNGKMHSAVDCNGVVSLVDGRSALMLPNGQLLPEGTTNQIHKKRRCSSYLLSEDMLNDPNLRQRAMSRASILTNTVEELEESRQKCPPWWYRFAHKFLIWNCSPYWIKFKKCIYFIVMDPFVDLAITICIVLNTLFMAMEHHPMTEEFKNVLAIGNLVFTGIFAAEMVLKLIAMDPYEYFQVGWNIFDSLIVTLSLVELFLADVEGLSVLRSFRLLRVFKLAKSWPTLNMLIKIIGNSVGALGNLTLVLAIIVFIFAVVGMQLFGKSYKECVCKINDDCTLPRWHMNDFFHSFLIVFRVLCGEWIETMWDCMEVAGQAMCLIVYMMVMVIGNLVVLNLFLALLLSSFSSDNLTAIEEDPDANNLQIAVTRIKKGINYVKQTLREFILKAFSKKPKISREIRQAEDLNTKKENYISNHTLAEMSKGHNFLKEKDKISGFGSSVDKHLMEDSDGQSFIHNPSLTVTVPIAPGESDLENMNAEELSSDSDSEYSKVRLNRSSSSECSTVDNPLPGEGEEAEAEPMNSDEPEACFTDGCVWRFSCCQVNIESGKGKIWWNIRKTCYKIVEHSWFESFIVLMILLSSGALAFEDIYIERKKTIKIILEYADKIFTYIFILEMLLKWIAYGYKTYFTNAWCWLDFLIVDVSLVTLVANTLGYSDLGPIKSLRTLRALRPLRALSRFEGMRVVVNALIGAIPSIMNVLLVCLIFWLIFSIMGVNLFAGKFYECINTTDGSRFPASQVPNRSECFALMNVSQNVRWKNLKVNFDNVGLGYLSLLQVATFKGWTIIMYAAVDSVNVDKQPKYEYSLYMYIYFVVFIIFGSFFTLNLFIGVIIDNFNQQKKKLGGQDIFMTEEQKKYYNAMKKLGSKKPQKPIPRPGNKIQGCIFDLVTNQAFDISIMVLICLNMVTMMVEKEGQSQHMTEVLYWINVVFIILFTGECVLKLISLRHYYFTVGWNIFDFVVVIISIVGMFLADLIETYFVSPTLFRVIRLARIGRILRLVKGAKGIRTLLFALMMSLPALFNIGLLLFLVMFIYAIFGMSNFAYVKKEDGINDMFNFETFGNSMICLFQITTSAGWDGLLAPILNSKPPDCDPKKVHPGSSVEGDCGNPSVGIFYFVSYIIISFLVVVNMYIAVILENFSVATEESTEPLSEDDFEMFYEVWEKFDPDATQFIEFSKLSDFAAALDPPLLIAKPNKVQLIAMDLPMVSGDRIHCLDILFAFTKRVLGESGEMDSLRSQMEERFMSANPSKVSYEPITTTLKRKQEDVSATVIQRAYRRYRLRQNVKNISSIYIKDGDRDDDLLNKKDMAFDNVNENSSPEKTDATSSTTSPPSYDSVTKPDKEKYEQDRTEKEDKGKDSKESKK
Sequence (Q07699 19-218 partner): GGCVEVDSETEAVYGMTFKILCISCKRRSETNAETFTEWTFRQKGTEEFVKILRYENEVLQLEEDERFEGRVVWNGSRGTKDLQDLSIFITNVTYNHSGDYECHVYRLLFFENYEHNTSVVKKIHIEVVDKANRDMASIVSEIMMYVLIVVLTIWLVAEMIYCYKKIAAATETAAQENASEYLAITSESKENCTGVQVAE
Assay: Patch voltage clamp electrophysiology assay (EP), NaV1.7
Settings: HEK-293 cells stably expressing NaV1.7 with β1 subunit; whole-cell patch clamp, membrane potential −60 mV (inactivated state)
Experimental: The following patch voltage clamp electrophysiology studies were performed on representative compounds of the invention using human embryonic kidney cells (HEK), permanently transfected with an expression vector containing the full-length cDNA coding for the desired human sodium channel α-subunit, grown in culture media containing 10% FBS, 1% PSG, and 0.5 mg/mL G418 at 37° C. with 5% CO2. […]
Counter-ions that a name gives are not always drawn.
Could you give me the number in nM? Just the number is fine.

Worked set:
[
  {
    "compound": "O=C(O)[C@@H]1CS(=O)(=O)CN1C(=O)c1cc(C2CC2)c(OCC23CC4CC(CC(C4)C2)C3)cc1F",
    "assay_system": "human NaV1.7 (Homo sapiens, UniProt Q15858)",
    "result_units": "nM",
    "reported_measurement": 1200
  },
  {
    "compound": "O=C(O)[C@@H]1CCCN1C(=O)c1cc(C2CC2)c(OCC23CC4CC(CC(C4)C2)C3)cc1F",
    "assay_system": "human NaV1.7 (Homo sapiens, UniProt Q15858)",
    "result_units": "nM",
    "reported_measurement": 13.5
  },
  {
    "compound": "C[C@H]1CCN(C(=O)c2cc(C3CC3)c(OCC3CCN([C@@H](c4cc(Cl)cc(Cl)c4)C(F)(F)F)CC3)cc2F)[C@@H]1C(=O)O (single isomer, unassigned) [Example 121b]",
    "assay_system": "human NaV1.7 (Homo sapiens, UniProt Q15858)",
    "result_units": "nM",
    "reported_measurement": 880
  },
  {
    "compound": "Cc1nn(C2CCN(c3ccc(Cl)c(C(F)(F)F)n3)CC2)c2cc(F)c(C(=O)N3CCC[C@H]3C(=O)O)cc12 [Example 195, trifluoroacetate]",
    "assay_system": "human NaV1.7 (Homo sapiens, UniProt Q15858)",
    "result_units": "nM",
    "reported_measurement": 5900
  },
  {
    "compound": "O=C(NC1(C(=O)O)CC1)c1cc(C2CC2)c(OCC23CC4CC(CC(C4)C2)C3)cc1F",
    "assay_system": "human NaV1.7 (Homo sapiens, UniProt Q15858)",
    "result_units": "nM",
    "reported_measurement": 532
  }
]

[Q] Annotate the compound O=C(O)[C@@H]1CC(F)(F)CN1C(=O)c1cc(C2CC2)c(OCC23CC4CC(CC(C4)C2)C3)cc1F [Example 145] with its measured IC50.
[A] 640

[Q] Annotate the compound CC1(C)CCC(C(=O)O)N1C(=O)c1cc(C2CC2)c(OCC23CC4CC(CC(C4)C2)C3)cc1F (stereo not shown) with its measured IC50.
[A] 2100
